Kindly state CHOLESTEROL for each of the entries shown.
species: Rattus norvegicus; assay: DrugMatrix - Regimen: Daily Repeat; format: toxicity, organism-based, Sprague-Dawley; design: regimen Daily Repeat, gender Male, age 6-8 weeks; settings: in vivo, po, 0 mg/kg, 72 h, tissue Plasma, route oral GAVAGE, dose level Control, time 3 day, vehicle 100 % WATER

molecule=C[N+](C)(C)CCOC(N)=O.[Cl-] parameter=CHOLESTEROL observed_value="79.67 mg/dL"
molecule=CC(Cl)(Cl)Cl parameter=CHOLESTEROL observed_value="63.67 mg/dL"
molecule=CCN(CC)C(=S)SSC(=S)N(CC)CC parameter=CHOLESTEROL observed_value="69 mg/dL"
molecule=C1CCN2C[C@@H]3C[C@@H](CN4CCCC[C@@H]34)[C@H]2C1 parameter=CHOLESTEROL observed_value="63.67 mg/dL"
molecule=CN1C(=O)OC(C)(C)C1=O parameter=CHOLESTEROL observed_value="66.33 mg/dL"
molecule=CCC1(c2ccccc2)C(=O)NC(=O)NC1=O parameter=CHOLESTEROL observed_value="78.83 mg/dL"

Please give CHOLESTEROL, item by item, for the list that follows.
1. NN [HYDRAZINE]
2. Cc1cc(C(C)(C)C)c(O)c(C)c1CC1=NCCN1
3. Cc1cn([C@H]2C=C[C@@H](CO)O2)c(=O)[nH]c1=O

RESULT:
1: 72.5 mg/dL; 2: 77.67 mg/dL; 3: 79.67 mg/dL

----------
Kindly state CHLORIDE for each of the entries shown.
species on record: Rattus norvegicus; assay: DrugMatrix - Regimen: Daily Repeat; format: toxicity, organism-based, Sprague-Dawley; parameters: regimen Daily Repeat, gender Male, age 6-8 weeks; details: in vivo, po, 0 mg/kg, 120 h, tissue Plasma, route oral GAVAGE, dose level Control, time 5 day, vehicle 100 % WATER
One number for each entry, in MEQ/L.

Field: example entries. Status: answers known.
compound=Cc1cn([C@H]2C=C[C@@H](CO)O2)c(=O)[nH]c1=O observed_value=100.83
compound=CC(Cl)(Cl)Cl observed_value=101.5
compound=C[N+](C)(C)CCOC(N)=O.[Cl-] observed_value=100.83
compound=Cc1cc(C(C)(C)C)c(O)c(C)c1CC1=NCCN1 observed_value=101.5
compound=C1CCN2C[C@@H]3C[C@@H](CN4CCCC[C@@H]34)[C@H]2C1 observed_value=101.5

Please give CHLORIDE, item by item, for the list that follows.
1. CCC1(c2ccccc2)C(=O)NC(=O)NC1=O
2. NN [HYDRAZINE]

RESULT:
[99.75, 98.33]

Please give CHLORIDE, item by item, for the list that follows.
1. CN1C(=O)OC(C)(C)C1=O
2. CCN(CC)C(=S)SSC(=S)N(CC)CC

RESULT:
1. 101.67
2. 99.67

----------
species on record: Rattus norvegicus; experiment: DrugMatrix - Regimen: Daily Repeat; assay type: toxicity, organism-based, Sprague-Dawley; design: regimen Daily Repeat, gender Male, age 6-8 weeks; conditions: in vivo, po, 0 mg/kg, 120 h, tissue Blood, route oral GAVAGE, dose level Control, time 5 day, vehicle 100 % WATER
parameter: ERYTHROCYTE COUNT (x10E6/uL)
Numbers only, in x10E6/uL.

Field: example entries. Status: answers known.
compound="Cc1cn([C@H]2C=C[C@@H](CO)O2)c(=O)[nH]c1=O [STAVUDINE]" parameter="ERYTHROCYTE COUNT" observed_value=5.49
compound="Cc1cc(C(C)(C)C)c(O)c(C)c1CC1=NCCN1 [OXYMETAZOLINE]" parameter="ERYTHROCYTE COUNT" observed_value=5.53
compound="CCC1(c2ccccc2)C(=O)NC(=O)NC1=O [PHENOBARBITAL]" parameter="ERYTHROCYTE COUNT" observed_value=5.32
compound="C1CCN2C[C@@H]3C[C@@H](CN4CCCC[C@@H]34)[C@H]2C1 [SPARTEINE]" parameter="ERYTHROCYTE COUNT" observed_value=5.78

Now look at this entry.
ERYTHROCYTE COUNT reading for CC(Cl)(Cl)Cl [TRICHLOROETHANE] : 5.78
